Entry source: patent US20100298205A1

Collected Rat T1/2 PPI values appear next to each entry.
Assay: Pharmacokinetics in rats after oral or intravenous administration
Assay type: in vivo, rats (Sprague-Dawley)
Design: unit not given here
Conditions: oral, systemic half-life of the proton pump inhibitor, parenthesis = standard deviation
MEASURE NAME: Rat T1/2 PPI

INSERT INTO assay_data (compound, observed_measurement) VALUES
  ('Cc1ccc(C(=O)O)cc1S(=O)(=O)n1c([S+]([O-])Cc2nccc(OCC(F)(F)F)c2C)nc2ccccc21 (stereo not drawn)', '2.35 (1.22)'),
  ('Cc1c(OCC(F)(F)F)ccnc1C[S+]([O-])c1nc2ccccc2n1S(=O)(=O)c1ccc(CC(=O)O)cc1 (stereo not drawn)', '0.341 (0.151)'),
  ('Cc1c(OCC(F)(F)F)ccnc1C[S+]([O-])c1nc2ccccc2n1S(=O)(=O)c1ccc(OCC(C)(C)C(=O)O)cc1 (stereo not drawn)', '0.933 (1.009)'),
  ('COc1ccc(C(=O)O)cc1S(=O)(=O)n1c([S+]([O-])Cc2nccc(OCC(F)(F)F)c2C)nc2ccccc21 (stereo not drawn)', '0.536 (0.217)'),
  ('Cc1c(OCC(F)(F)F)ccnc1C[S+]([O-])c1nc2ccccc2n1S(=O)(=O)c1cccc(C(=O)O)c1 (stereo not drawn)', '1.93 (1.41)'),
  ('COc1ccc(S(=O)(=O)n2c([S+]([O-])Cc3nccc(OCC(F)(F)F)c3C)nc3ccccc32)cc1C(=O)O (stereo not drawn)', '1.80 (1.20)');
